Test: in vitro
Details: human, liver microsomes
Description: Metabolic stability in human liver microsomes assessed as compound remaining at 1 uM after 30 mins
Below, each entry is listed with its recorded remaining at 0.5 h, 1 µM.
The answer should read as a number with its unit following.

CN1c2ccc(-c3cccc([C@H](O)CO)n3)cc2CCc2cc(C(F)(F)F)ccc21; 79%
CN1Cc2cc(-c3cccc([C@H](O)[C@@H](O)C(N)=O)n3)ccc2Oc2ccc(C(F)(F)F)cc21; 94%
CN1Cc2cc(-c3cccc([C@H](O)CO)n3)ccc2Oc2ccc(C(F)(F)F)cc21; 98%
NC(=O)CN1Cc2cc(-c3cccc([C@H](O)CO)n3)ccc2Oc2ccc(C(F)(F)F)cc21; 83%

Input NC(=O)N1c2ccccc2C=Cc2ccccc21 [CARBAMAZEPINE] . Output remaining at 0.5 h, 1 µM: 38%

Input CN1Cc2cc(C(F)(F)F)ccc2Oc2ccc(-c3cccc([C@H](O)CO)n3)cc21 . Output remaining at 0.5 h, 1 µM: 91%

* * *

Test: Kinetic solubility of the compound at pH 6.8
Type: physicochemical
Details: buffer, read-out: Kinetic_solubility
reported property: solubility kinetic (µM)
Provide the reading as a plain figure in µM.

Solved cases below.
CN1Cc2cc(-c3cccc([C@H](O)[C@@H](O)C(N)=O)n3)ccc2Oc2ccc(C(F)(F)F)cc21; 0.8
CN1c2ccc(-c3cccc([C@H](O)CO)n3)cc2CCc2cc(C(F)(F)F)ccc21; 0.1

Now for a further compound.
Input CC(=O)N1c2ccc(Cl)cc2CCc2cc(-c3cccc(C(N)=O)n3)ccc21 . Output solubility kinetic: 7

* * *

Test: in vitro
Details: rat, liver microsomes
Description: Metabolic stability in rat liver microsomes assessed as compound remaining at 1 uM after 30 mins
reported property: remaining at 0.5 h, 1 µM (%)
Provide the reading as a plain figure in %.

Solved cases below.
CN1Cc2cc(-c3cccc([C@H](O)CO)n3)ccc2Oc2ccc(C(F)(F)F)cc21; 94
CN1c2ccc(-c3cccc([C@H](O)CO)n3)cc2CCc2cc(C(F)(F)F)ccc21; 72
CN1Cc2cc(-c3cccc([C@H](O)[C@@H](O)C(N)=O)n3)ccc2Oc2ccc(C(F)(F)F)cc21; 93
CN1Cc2cc(C(F)(F)F)ccc2Oc2ccc(-c3cccc([C@H](O)CO)n3)cc21; 74
NC(=O)N1c2ccccc2C=Cc2ccccc21 [CARBAMAZEPINE]; 37

Input NC(=O)CN1Cc2cc(-c3cccc([C@H](O)CO)n3)ccc2Oc2ccc(C(F)(F)F)cc21 . Output remaining at 0.5 h, 1 µM: 91
